Source listed as patent US20250304576A1.

- target: Recombinant IKKα (Homo sapiens, UniProt O15111)
- Construct: purchased Millipore, Dundee, UK
- Sequence (O15111 whole entry): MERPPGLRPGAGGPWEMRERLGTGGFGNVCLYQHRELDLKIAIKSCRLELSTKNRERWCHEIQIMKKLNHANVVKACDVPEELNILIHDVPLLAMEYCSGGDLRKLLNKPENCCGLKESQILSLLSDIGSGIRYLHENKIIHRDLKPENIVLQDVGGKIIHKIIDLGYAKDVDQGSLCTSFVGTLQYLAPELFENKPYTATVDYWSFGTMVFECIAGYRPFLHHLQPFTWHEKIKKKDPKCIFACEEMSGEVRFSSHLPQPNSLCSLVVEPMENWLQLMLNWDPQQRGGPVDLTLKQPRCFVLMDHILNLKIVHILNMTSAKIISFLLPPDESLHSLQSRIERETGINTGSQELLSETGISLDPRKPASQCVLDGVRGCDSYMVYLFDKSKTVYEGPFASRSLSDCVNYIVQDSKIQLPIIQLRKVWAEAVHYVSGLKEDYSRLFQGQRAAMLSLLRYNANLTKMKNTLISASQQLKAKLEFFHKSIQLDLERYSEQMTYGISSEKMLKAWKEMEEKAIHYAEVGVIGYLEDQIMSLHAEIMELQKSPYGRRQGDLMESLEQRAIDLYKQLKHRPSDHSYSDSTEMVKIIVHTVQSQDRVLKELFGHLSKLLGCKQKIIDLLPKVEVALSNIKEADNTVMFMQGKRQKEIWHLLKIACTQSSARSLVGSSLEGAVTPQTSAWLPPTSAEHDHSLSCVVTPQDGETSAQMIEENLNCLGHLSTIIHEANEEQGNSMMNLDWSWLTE
- protocolNotes: DELFIA IKKα kinase assay (apparent Ki, Cheng-Prusoff)
- Assay type: biochemical
- conditionsUsed: DELFIA assay (first line of an example)
pKi: −log10 of the molar value.
measureName: pKi

1) COCCNC(=O)c1cc2c(-c3ccc4[nH]nc(N)c4c3)ccnc2[nH]1 8.30
2) Nc1n[nH]c2c(Cl)cc(-c3ccnc4[nH]c(C(=O)NCCN5CCCCC5)cc34)cc12 8.10
3) CC(C)(C)C#Cc1cc(-c2ccnc(Nc3cn[nH]c3)c2)cc2c(N)n[nH]c12 8.00
4) CC(C)(C)C#Cc1cc(-c2ccnc3[nH]ccc23)cc2c(N)n[nH]c12 7.21
5) Nc1n[nH]c2c(C#CC3CCCCC3)cc(-c3ccnc4[nH]ccc34)cc12 6.77
6) Nc1n[nH]c2ccc(-c3ccnc4[nH]c(CNc5ccccc5)cc34)cc12 8.22
7) Nc1n[nH]c2ccc(-c3ccnc4[nH]c(CCCNC5CCCCC5)cc34)cc12 8.40
8) CC(C)(C)C#Cc1cc(-c2ccnc3[nH]c(C4CCCC4)cc23)cc2c(N)n[nH]c12 6.26
9) Cc1noc(C)c1Nc1cc(-c2cc(C#CC(C)(C)C)c3[nH]nc(N)c3c2)ccn1 6.50
10) NCCNC(=O)c1cc2c(-c3ccc4[nH]nc(N)c4c3)ccnc2[nH]1 8.40
11) CC(C)(C)C#Cc1cc(-c2ccnc3[nH]c(CC4CCCCC4)cc23)cc2c(N)n[nH]c12 6.42
12) Nc1cc(-c2cc(-c3ccc(CCN4CCOCC4)cc3)c3[nH]nc(N)c3c2)ccn1 7.85
13) Cc1cc(Nc2cc(-c3cc(C#CC(C)(C)C)c4[nH]nc(N)c4c3)ccn2)n[nH]1 7.35
14) COC(=O)Nc1cc(-c2cc(-c3ccc(C(N)=O)cc3)c3[nH]nc(N)c3c2)ccn1 6.21
15) Nc1n[nH]c2ccc(-c3ccnc4[nH]c(C5CCCCC5)cc34)cc12 7.38
16) Nc1n[nH]c2ccc(-c3ccnc4[nH]c(C(=O)NC5CCCCC5)cc34)cc12 8.00
17) C#Cc1cc(-c2ccnc3[nH]ccc23)cc2c(N)n[nH]c12 7.59

----------
- target: IKBKB (IKKβ) (Homo sapiens, UniProt O14920)
- Construct: purchased Life Technologies (assay performed by the vendor)
- Sequence (O14920 whole entry): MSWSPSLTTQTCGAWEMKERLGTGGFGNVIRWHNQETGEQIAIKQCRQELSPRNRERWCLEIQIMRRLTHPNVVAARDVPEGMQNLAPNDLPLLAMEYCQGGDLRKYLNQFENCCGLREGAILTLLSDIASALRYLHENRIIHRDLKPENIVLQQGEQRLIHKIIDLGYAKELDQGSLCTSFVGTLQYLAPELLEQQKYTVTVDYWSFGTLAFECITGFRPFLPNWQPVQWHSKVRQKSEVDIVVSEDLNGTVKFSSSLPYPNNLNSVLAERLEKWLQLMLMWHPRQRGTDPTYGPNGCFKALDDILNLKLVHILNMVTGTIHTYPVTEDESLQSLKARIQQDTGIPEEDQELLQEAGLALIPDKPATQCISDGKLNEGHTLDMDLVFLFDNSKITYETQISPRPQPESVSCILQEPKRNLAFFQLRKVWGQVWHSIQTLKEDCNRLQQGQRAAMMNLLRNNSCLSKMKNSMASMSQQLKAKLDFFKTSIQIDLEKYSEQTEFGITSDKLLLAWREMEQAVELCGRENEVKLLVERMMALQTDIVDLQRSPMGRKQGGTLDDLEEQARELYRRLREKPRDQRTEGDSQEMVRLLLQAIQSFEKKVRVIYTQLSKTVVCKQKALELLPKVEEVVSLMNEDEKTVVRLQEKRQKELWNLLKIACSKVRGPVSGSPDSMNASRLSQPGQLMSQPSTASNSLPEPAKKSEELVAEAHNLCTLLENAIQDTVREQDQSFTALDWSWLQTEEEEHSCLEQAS
- protocolNotes: Z'-LYTE IKKβ assay (Life Technologies)
- Assay type: biochemical
Catalogue of IC50 values

compound	IC50 / µM
Nc1n[nH]c2ccc(-c3ccnc4[nH]c(C5CCCCC5)cc34)cc12 [Example 219]	0.28
Nc1n[nH]c2ccc(-c3ccnc4[nH]c(CN5CCOCC5)cc34)cc12 [Example 262]	0.269
Nc1n[nH]c2ccc(-c3ccnc4[nH]c(CCN5CCCCC5)cc34)cc12 [Example 267]	0.235
Nc1n[nH]c2ccc(-c3ccnc4[nH]c(CCC5CCCCC5)cc34)cc12 [Example 222]	0.268
CC(C)(O)C#Cc1cc(-c2ccnc3[nH]ccc23)cc2c(N)n[nH]c12 [Example 206]	0.294

----------
- target: Recombinant IKKα (Homo sapiens, UniProt O15111)
- Construct: purchased Millipore, Dundee, UK
- protocolNotes: DELFIA IKKα kinase assay (apparent Ki, Cheng-Prusoff)
- Type: biochemical
- conditionsUsed: DELFIA assay (first line of an example)
Catalogue of Ki values

molecule	Ki (nM)
CN1CCN(C(=O)c2cc3c(-c4ccc5[nH]nc(N)c5c4)ccnc3[nH]2)CC1 [Example 243]	72
Nc1n[nH]c2c(C#CCCCCOc3ccccc3)cc(-c3ccnc4[nH]ccc34)cc12 [Example 217]	243
Nc1n[nH]c2ccc(-c3ccnc4[nH]c(CNC5CCCCC5)cc34)cc12 [Example 251]	74
COC(=O)Nc1cc(-c2cc(-c3cccc(CN4CCOCC4)c3)c3[nH]nc(N)c3c2)ccn1 [Example 334]	38
Nc1n[nH]c2ccc(-c3ccnc(NC(=O)CC4CCCCC4)c3)cc12 [Example 335]	340
CC(=O)Nc1cc(-c2cc(-c3ccncc3)c3[nH]nc(N)c3c2)ccn1 [Example 197]	25
Nc1n[nH]c2c(C#CC3CC3)cc(-c3ccnc4[nH]ccc34)cc12 [Example 202]	13
Nc1n[nH]c2c(Cl)cc(-c3ccnc4[nH]c(CN5CCOCC5)cc34)cc12 [Example 276]	4
